Recorded viability, T/C values for a group of molecules are listed next.
- Test system: 695427-040-R-J1-PDC complex spheroid viability
- assay_name: Anticancer human tumor 695427-040-R-J1-PDC patient-derived colon adenocarcinoma cell line growth inhibition [POLQ]
- test_parameters: second compound 0.0316 µM; first compound 10 µM; hits give low values

A selection of reference data follows.
Fill in the blank: the reported viability, T/C of COc1cccc2c1C(=O)c1c(O)c3c(c(O)c1C2=O)CC(O)(C(=O)CO)CC3OC1CC(N)C(O)C(C)O1 (stereo not drawn) + COC1C(OC(N)=O)C(O)C(Oc2ccc3c(O)c(NC(=O)c4ccc(O)c(CC=C(C)C)c4)c(=O)oc3c2C)OC1(C)C is ____.
54.5%

Also C#Cc1c(F)ccc2cc(O)cc(-c3ncc4c(N5CC6CCC(C5)N6)nc(OCC56CCCN5CC(F)C6)nc4c3F)c12 (stereo not drawn) + Nc1ccc(C#CCN(C(=O)Cc2ncc(C(F)(F)F)cc2C(F)(F)F)c2ccc(F)cc2)nn1 , if possible.
88.7%

Now turn to the next molecule.
Fill in the blank: the reported viability, T/C of CC1COCCN1c1cc(-c2ccnn2C)c2ccnc(-c3ccn[nH]3)c2n1 (stereo not drawn) + Nc1ccc(C#CCN(C(=O)Cc2ncc(C(F)(F)F)cc2C(F)(F)F)c2ccc(F)cc2)nn1 is ____.
56.3%

###

- Tested on: 695427-040-R-J1-PDC complex spheroid viability
- assay_name: Anticancer human tumor 695427-040-R-J1-PDC cell line growth inhibition [POLQ];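 note: spheroids exposed to compounds for seven days; 100% = DMSO vehicle control viability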
- test_parameters: second compound 3.16 µM; first compound 0.01 µM; hits give low values
Recorded viability, T/C values for a group of compounds are listed next.
Entry rule: numbers only, all in %.

Fill in the blank: the reported viability, T/C of CC[C@@]1(O)C(=O)OCc2c1cc1n(c2=O)Cc2cc3c(CN(C)C)c(O)ccc3nc2-1 + COC1C(OC(N)=O)C(O)C(Oc2ccc3c(O)c(NC(=O)c4ccc(O)c(CC=C(C)C)c4)c(=O)oc3c2C)OC1(C)C is ____.
97.2

Also COc1cccc(OCCCN)c1-c1cc(Nc2cnc(C#N)cn2)n[nH]1 + COC1C(OC(N)=O)C(O)C(Oc2ccc3c(O)c(NC(=O)c4ccc(O)c(CC=C(C)C)c4)c(=O)oc3c2C)OC1(C)C , if possible.
95.1

Also CC[C@@]1(O)C(=O)OCc2c1cc1n(c2=O)Cc2cc3c(CN(C)C)c(O)ccc3nc2-1 + Nc1ccc(C#CCN(C(=O)Cc2ncc(C(F)(F)F)cc2C(F)(F)F)c2ccc(F)cc2)nn1 , if possible.
107

More entries:
Fill in the blank: the reported viability, T/C of C=CCn1c(=O)c2cnc(Nc3ccc(N4CCN(C)CC4)cc3)nc2n1-c1cccc(C(C)(C)O)n1 + Nc1ccc(C#CCN(C(=O)Cc2ncc(C(F)(F)F)cc2C(F)(F)F)c2ccc(F)cc2)nn1 is ____.
101

###

Recorded viability, T/C values for a group of molecules are listed next.
- Test system: 695427-040-R-J1-PDC complex spheroid viability
- assay_name: Anticancer human tumor 695427-040-R-J1-PDC cell line growth inhibition [POLQ];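 note: spheroids exposed to compounds for seven days; 100% = DMSO vehicle control viability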
- test_parameters: second compound 0.316 µM; first compound 0.316 µM; hits give low values
Entry rule: numbers only, all in %.

Fill in the blank: the reported viability, T/C of O=c1[nH]cc(F)c(=O)[nH]1 + Cc1cccc(N(C)C(=O)C2C(O)CCN2c2nc(C)cc(C(F)(F)F)c2C#N)c1 is ____.
99.1

Also CCc1c2c(nc3ccc(O)cc13)-c1cc3c(c(=O)n1C2)COC(=O)[C@]3(O)CC + Cc1cccc(N(C)C(=O)C2C(O)CCN2c2nc(C)cc(C(F)(F)F)c2C#N)c1 , if possible.
67.4

Also CCc1cc2c(N3CCc4c(cc(Cn5ccnc5)cc4-c4cn(C)nc4C(F)(F)F)C3=O)cc(C)nc2c(OC)n1 + COC1C(OC(N)=O)C(O)C(Oc2ccc3c(O)c(NC(=O)c4ccc(O)c(CC=C(C)C)c4)c(=O)oc3c2C)OC1(C)C , if possible.
106

Also COc1ccc([C@@H](O)c2cc(-c3ncnc4cc(N5CCOCC5)ccc34)c(F)cc2Cl)nn1 + Nc1ccc(C#CCN(C(=O)Cc2ncc(C(F)(F)F)cc2C(F)(F)F)c2ccc(F)cc2)nn1 , if possible.
99.7

Also COc1ccc([C@@H](O)c2cc(-c3ncnc4cc(N5CCOCC5)ccc34)c(F)cc2Cl)nn1 + COC1C(OC(N)=O)C(O)C(Oc2ccc3c(O)c(NC(=O)c4ccc(O)c(CC=C(C)C)c4)c(=O)oc3c2C)OC1(C)C , if possible.
99

More entries:
Fill in the blank: the reported viability, T/C of Nc1ccn(C2OC(CO)C(O)C2(F)F)c(=O)n1 (stereo unspecified) + COC1C(OC(N)=O)C(O)C(Oc2ccc3c(O)c(NC(=O)c4ccc(O)c(CC=C(C)C)c4)c(=O)oc3c2C)OC1(C)C is ____.
76.6

Also COc1cc2cc(C(=O)CCC(=O)O)sc2cc1OC + Cc1cccc(N(C)C(=O)C2C(O)CCN2c2nc(C)cc(C(F)(F)F)c2C#N)c1 , if possible.
106

Also CNCc1ccc(-c2[nH]c3cc(F)cc4c3c2CCNC4=O)cc1 + COC1C(OC(N)=O)C(O)C(Oc2ccc3c(O)c(NC(=O)c4ccc(O)c(CC=C(C)C)c4)c(=O)oc3c2C)OC1(C)C , if possible.
94.5

Also O=C(c1cc(Cc2n[nH]c(=O)c3ccccc23)ccc1F)N1CCN(C(=O)C2CC2)CC1 + Nc1ccc(C#CCN(C(=O)Cc2ncc(C(F)(F)F)cc2C(F)(F)F)c2ccc(F)cc2)nn1 , if possible.
102

Also COc1cccc(OCCCN)c1-c1cc(Nc2cnc(C#N)cn2)n[nH]1 + COC1C(OC(N)=O)C(O)C(Oc2ccc3c(O)c(NC(=O)c4ccc(O)c(CC=C(C)C)c4)c(=O)oc3c2C)OC1(C)C , if possible.
54

Also CCc1cc2c(N3CCc4c(cc(Cn5ccnc5)cc4-c4cn(C)nc4C(F)(F)F)C3=O)ccnc2c(OC)n1 + COC1C(OC(N)=O)C(O)C(Oc2ccc3c(O)c(NC(=O)c4ccc(O)c(CC=C(C)C)c4)c(=O)oc3c2C)OC1(C)C , if possible.
108

###

Recorded viability, T/C values for a group of molecules are listed next.
- Tested on: 695427-040-R-J1-PDC complex spheroid viability
- assay_name: Anticancer human tumor 695427-040-R-J1-PDC cell line growth inhibition [POLQ];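 note: spheroids exposed to compounds for seven days; 100% = DMSO vehicle control viability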
- test_parameters: second compound 0.1 µM; first compound 0.316 µM; hits give low values
- Experimental: Multicellular complex tumor spheroid response to Polymerase (POL) inhibitors (novobiocin, ART-558, RP6685) in combination with a variety of drugs and investigational agents in selected tumor cell lines The POL inhibitors (novobiocin, ART-558, and RP6685) were evaluated both individually and in combination with standard of care and investigational anticancer small molecules within a complex spheroid model of solid tumors. . […]
Entry rule: numbers only, all in %.

Fill in the blank: the reported viability, T/C of C#Cc1c(F)ccc2cc(O)cc(-c3ncc4c(N5CC6CCC(C5)N6)nc(OCC56CCCN5CC(F)C6)nc4c3F)c12 (stereo not given) + Cc1cccc(N(C)C(=O)C2C(O)CCN2c2nc(C)cc(C(F)(F)F)c2C#N)c1 is ____.
90.8

Also COc1cccc2c1C(=O)c1c(O)c3c(c(O)c1C2=O)CC(O)(C(=O)CO)CC3OC1CC(N)C(O)C(C)O1 (stereo not given) + COC1C(OC(N)=O)C(O)C(Oc2ccc3c(O)c(NC(=O)c4ccc(O)c(CC=C(C)C)c4)c(=O)oc3c2C)OC1(C)C , if possible.
95.1

Also COc1cccc(OCCCN)c1-c1cc(Nc2cnc(C#N)cn2)n[nH]1 + Nc1ccc(C#CCN(C(=O)Cc2ncc(C(F)(F)F)cc2C(F)(F)F)c2ccc(F)cc2)nn1 , if possible.
66.3

Also CCc1cc2c(N3CCc4c(cc(Cn5ccnc5)cc4-c4cn(C)nc4C(F)(F)F)C3=O)cc(C)nc2c(OC)n1 + COC1C(OC(N)=O)C(O)C(Oc2ccc3c(O)c(NC(=O)c4ccc(O)c(CC=C(C)C)c4)c(=O)oc3c2C)OC1(C)C , if possible.
105

Now turn to the next molecule.
Fill in the blank: the reported viability, T/C of COc1cccc(OCCCN)c1-c1cc(Nc2cnc(C#N)cn2)n[nH]1 + Cc1cccc(N(C)C(=O)C2C(O)CCN2c2nc(C)cc(C(F)(F)F)c2C#N)c1 is ____.
71.3

###

Recorded viability, T/C values for a group of molecules are listed next.
- Test system: 695427-040-R-J1-PDC complex spheroid viability
- assay_name: Anticancer human tumor 695427-040-R-J1-PDC cell line growth inhibition [POLQ];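 note: spheroids exposed to compounds for seven days; 100% = DMSO vehicle control viability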
- test_parameters: second compound 0.316 µM; first compound 0.0316 µM; hits give low values
- Procedure: Multicellular complex tumor spheroid response to Polymerase (POL) inhibitors (novobiocin, ART-558, RP6685) in combination with a variety of drugs and investigational agents in selected tumor cell lines The POL inhibitors (novobiocin, ART-558, and RP6685) were evaluated both individually and in combination with standard of care and investigational anticancer small molecules within a complex spheroid model of solid tumors. . […]
Entry rule: numbers only, all in %.

A selection of reference data follows.
Fill in the blank: the reported viability, T/C of CCc1cc2c(N3CCc4c(cc(Cn5ccnc5)cc4-c4cn(C)nc4C(F)(F)F)C3=O)cc(C)nc2c(OC)n1 + Cc1cccc(N(C)C(=O)C2C(O)CCN2c2nc(C)cc(C(F)(F)F)c2C#N)c1 is ____.
108

Also CC[C@@]1(O)C(=O)OCc2c1cc1n(c2=O)Cc2cc3c(CN(C)C)c(O)ccc3nc2-1 + COC1C(OC(N)=O)C(O)C(Oc2ccc3c(O)c(NC(=O)c4ccc(O)c(CC=C(C)C)c4)c(=O)oc3c2C)OC1(C)C , if possible.
105

Also COc1cc(C2c3cc4c(cc3C(OC3OC5COC(C)OC5C(O)C3O)C3COC(=O)C23)OCO4)cc(OC)c1O (stereo not given) + COC1C(OC(N)=O)C(O)C(Oc2ccc3c(O)c(NC(=O)c4ccc(O)c(CC=C(C)C)c4)c(=O)oc3c2C)OC1(C)C , if possible.
104

Also CC[C@@]1(O)C(=O)OCc2c1cc1n(c2=O)Cc2cc3c(CN(C)C)c(O)ccc3nc2-1 + Cc1cccc(N(C)C(=O)C2C(O)CCN2c2nc(C)cc(C(F)(F)F)c2C#N)c1 , if possible.
101

Also CCc1cc2c(N3CCc4c(cc(Cn5ccnc5)cc4-c4cn(C)nc4C(F)(F)F)C3=O)cc(C)nc2c(OC)n1 + Nc1ccc(C#CCN(C(=O)Cc2ncc(C(F)(F)F)cc2C(F)(F)F)c2ccc(F)cc2)nn1 , if possible.
102

Also COc1ccc([C@@H](O)c2cc(-c3ncnc4cc(N5CCOCC5)ccc34)c(F)cc2Cl)nn1 + Cc1cccc(N(C)C(=O)C2C(O)CCN2c2nc(C)cc(C(F)(F)F)c2C#N)c1 , if possible.
109

More entries:
Fill in the blank: the reported viability, T/C of CC(C)n1c(=O)n(C)c2cnc3cc(F)c(-c4ccc(OCCCN5CCCCC5)nc4)cc3c21 + COC1C(OC(N)=O)C(O)C(Oc2ccc3c(O)c(NC(=O)c4ccc(O)c(CC=C(C)C)c4)c(=O)oc3c2C)OC1(C)C is ____.
111

Also COc1ccc([C@@H](O)c2cc(-c3ncnc4cc(N5CCOCC5)ccc34)c(F)cc2Cl)nn1 + Nc1ccc(C#CCN(C(=O)Cc2ncc(C(F)(F)F)cc2C(F)(F)F)c2ccc(F)cc2)nn1 , if possible.
108
